The measurements presented in this section are drawn from PubChem BioAssay AID179.

system: CEM cells HIV-1 protection, formazan growth assay; assay: NCI AIDS Antiviral Assay
OBSERVED PROPERTY: EC50

- COMPOUND: "CSC1=N/C(=C\\c2ccc(C)cc2)C(=O)N1CN1CCCCC1"
  OBSERVED PROPERTY: "EC50"
  RESULT: "> 200 µM"

INPUT: I would be grateful if you could share the reported EC50 for O=C1CSC(c2ccc([N+](=O)[O-])cc2)N1c1ccc(-c2ccc(-n3c(-c4ccccc4)nc4ccccc4c3=O)cc2)cc1 (stereo unspecified) .
OUTPUT: > 200 µM

INPUT: Also check "Cc1nc2ccccc2c(=O)n1NC(=O)c1ccc(N)cc1"
OUTPUT: > 200 µM

---

tested on: CEM cells HIV-1 protection, formazan growth assay; experiment: NCI AIDS Antiviral Assay; conditions: measured here: growth of uninfected CEM cells
pIC50: −log10 of the molar value.
Reported pIC50 values for a set of molecules

Solved cases below.
- SMILES STRING: "CC(C)(Oc1ccc(/C=C/C(=O)c2ccc(Cl)cc2)cc1)C(=O)Nc1c(Cl)cccc1Cl"
  OBSERVED PROPERTY: "pIC50"
  RESULT: "< 4.83"
- SMILES STRING: "CCOC(=O)c1cc2nc(NC(=O)c3ccccc3)sc2n1C"
  OBSERVED PROPERTY: "pIC50"
  RESULT: "< 3.70"
- SMILES STRING: "CC(=O)Oc1c(-c2ccccc2)[nH]c2cc([N+](=O)[O-])c(/C(Cl)=C/c3ccccc3)cc12"
  OBSERVED PROPERTY: "pIC50"
  RESULT: "< 5.20"
- SMILES STRING: "CSC(SC)=C1C(=O)NN=C1C"
  OBSERVED PROPERTY: "pIC50"
  RESULT: "< 3.70"
- SMILES STRING: "O=C(O)c1ccc2c(c1C(=O)O)C(=O)c1ccccc1C2=O"
  OBSERVED PROPERTY: "pIC50"
  RESULT: "< 3.70"

INPUT: I would be grateful if you could share the reported pIC50 for "C=CCNC(=O)ON1C(=O)CCC1=O" .
OUTPUT: < 2.90

INPUT: Also check "O=C(CCSSCCC(=O)ON1C(=O)CCC1=O)ON1C(=O)CCC1=O"
OUTPUT: < 3.70

INPUT: Also check "O=C1c2ccccc2C(=O)c2c(Nc3cccc4c3C(=O)c3ccccc3C4=O)cccc21"
OUTPUT: < 3.70

INPUT: Also check "CCOC(=O)c1[nH]n(-c2ccccc2)c(=O)c1/C=N/C(N)=S"
OUTPUT: < 3.70

INPUT: Also check "O=C(Nc1nccs1)c1ccc(C(=O)Nc2nccs2)cc1"
OUTPUT: < 3.70

---

tested on: CEM cells HIV-1 protection, formazan growth assay; assay: NCI AIDS Antiviral Assay
Reported EC50 values for a set of compounds

Solved cases below.
- COMPOUND: "Cc1ccc2c(c1)P1c3cc(C)ccc3SP1S2 (centres undefined)"
  EXPERIMENTAL SYSTEM: "CEM cells HIV-1 protection, formazan growth assay"
  EC50: "> 12.3 µM"
- COMPOUND: "Oc1ccc2ccccc2c1CNCc1c(O)ccc2ccccc12"
  EXPERIMENTAL SYSTEM: "CEM cells HIV-1 protection, formazan growth assay"
  EC50: "> 21.9 µM"

INPUT: Recorded EC50 for "Cc1cn2c(C)csc2c1P(=O)(OC(C)C)OC(C)C" with CEM cells HIV-1 protection, formazan growth assay, please?
OUTPUT: > 200 µM

INPUT: Also check "N#C/C(=C\c1ccccc1)c1nc(-c2cc3ccccc3oc2=O)cs1"
OUTPUT: > 151 µM
